Data credit: ChEMBL document CHEMBL1201862

- Test system: NCI-H522
- Method notes: NCI tumour cell line growth inhibition, 48 h
Activity calls are given as the source filed them. No stated cut-off is given here; in the data, active = GI50 up to about 1.1 µM and inactive = higher.
Item-by-item account of GI50

{"Molecule": "COc1cc2c(cc1O)N=C[C@@H]1CC[C@@H](O)N1C2=O.COc1cc2c(cc1O)N=C[C@@H]1CC[C@H](O)N1C2=O", "Tgt": "NCI-H522", "Parameter": "GI50", "Reading": "0.159 µM (active)"}

response.value for CC1=NN(c2nc(N)nc(CO)n2)C(C)(C)C1 (field: GI50) = > 100 µM (inactive)

response.value for COc1cc(CCc2ccncc2)cc(OC)c1OC (field: GI50) = > 100 µM (inactive)

response.value for CCN(CCCl)c1cc(CN(C)C)cc(NC(=O)c2cc(C(=O)Nc3cc(CN(C)C)cc(N(CC)CCCl)c3)n(C)n2)c1 (field: GI50) = 0.115 µM (active)

response.value for COc1cc(C=C2C(C)=NN(c3cccc(Cl)c3)C23SCC(=O)N3c2nc3ccccc3s2)ccc1O (stereo not given) (field: GI50) = 17.9 µM (inactive)

response.value for Cc1nc2ccccc2[s+]c1-c1cnc(NC#N)nc1C(=O)Nc1cccc(Cl)c1 (field: GI50) = > 100 µM (inactive)

response.value for Cc1ccc(O)c(C(c2ccc(C(c3cc(C)ccc3O)c3cc(C)ccc3O)cc2)c2cc(C)ccc2O)c1 (field: GI50) = 2.08 µM (inactive)

response.value for O=C1/C(=C/c2ccc(Cl)cc2)CSC/C1=C\c1ccc(Cl)cc1 (field: GI50) = 4.99 µM (inactive)

response.value for Cc1nc2ccc(S(=O)(=O)Nc3ccccc3)cc2c(=O)n1NC(=O)CNc1ccccc1 (field: GI50) = > 100 µM (inactive)

response.value for c1ccc2c[n+](Cc3ccnc4ccccc34)ccc2c1 (field: GI50) = > 100 µM (inactive)

----------
- Tested on: Malme-3M
- Method notes: NCI tumour cell line growth inhibition, 48 h
Calls of active or inactive are those of the source. Rule as the data show it: active = GI50 up to about 1.1 µM and inactive = higher.
Parameter: GI50

GET /values?item= Clc1ccc(C2C3COc4ccccc4C3=NN2c2ccccc2)cc1 (stereo not drawn) &system= Malme-3M returns GI50: > 100 µM (inactive)

GET /values?item= CC(=O)c1ccc(NC(=O)C(=O)Nn2c(S)nc3ccccc3c2=O)cc1 &system= Malme-3M returns GI50: > 100 µM (inactive)

GET /values?item= COc1cc(C2S/C(=C/c3ccccc3)C(=O)N2c2ccccc2Cl)cc(OC)c1OC (stereo not drawn) &system= Malme-3M returns GI50: 29.8 µM (inactive)

GET /values?item= COc1ccc2[nH]c3c(c2c1)CCc1ccccc1-3 &system= Malme-3M returns GI50: 39.2 µM (inactive)

GET /values?item= CCOC(=O)c1c(N)nn2c1cc1cccccc12 &system= Malme-3M returns GI50: 27.8 µM (inactive)

GET /values?item= COc1ccccc1C(=O)c1c(N2CCCCC2)c(=O)c1=O &system= Malme-3M returns GI50: > 100 µM (inactive)

GET /values?item= CN(C)c1n/c(=N/c2ccc3ccccc3c2)ss1 &system= Malme-3M returns GI50: 24.4 µM (inactive)

GET /values?item= CN(C)C1C(O)=C(C(=O)NCN2CCCC2)C(=O)C2(O)C(O)=C3C(=O)c4c(O)cccc4C(C)(O)C3CC12 (stereo not drawn) &system= Malme-3M returns GI50: 25.6 µM (inactive)

----------
- Test system: A549
- Method notes: NCI tumour cell line growth inhibition, 48 h
The source made the active and inactive calls. No stated cut-off is given here; in the data, active = GI50 up to about 1.1 µM and inactive = higher.
Parameter: GI50

{"Compound": "CC(=O)Oc1ccc2c3c1[C@H]1O[C@H]1c1cccc(c1-3)[C@@H]1O[C@H]21", "Parameter": "GI50", "Reading": "7.33 µM (inactive)"}
{"Compound": "O=C1CCC(=O)N2CCCCN12", "Parameter": "GI50", "Reading": "> 100 µM (inactive)"}
{"Compound": "Clc1nc2c(C#Cc3ccccc3)ncnc2n1C1CCCCO1 (centres undefined)", "Parameter": "GI50", "Reading": "16.5 µM (inactive)"}

We next turn to a different compound, shown below.
response.value for C=C1C(=O)O[C@@H]2[C@H](O)[C@@H](C)[C@@H]3C=CC(=O)[C@@]3(C)[C@@H](OC(=O)/C(C)=C/C)[C@H]12 (field: GI50) = 1.98 µM (inactive)

----------
- System: M14
- Method notes: NCI tumour cell line growth inhibition, 48 h
Calls of active or inactive are those of the source. Rule as the data show it: active = GI50 up to about 1.1 µM and inactive = higher. Where a SMILES comes first, the peptide text is derived from it. The star is where a group is joined. Cbz = O=C(OCc1ccccc1)*
Parameter: GI50

// known answers, use as guide
{"Compound": "CN(CC(=O)O)CC(=O)O", "GI50": "> 100 µM (inactive)"}
{"Compound": "COC(=O)C(CC(C)C)NC(=O)C(CCCNC(=N)N)NC(=O)OCc1ccccc1 (stereo not drawn) (Cbz-Arg-Leu-OMe; configuration not given here)", "GI50": "> 100 µM (inactive)"}
{"Compound": "c1ccc2c(Cc3[nH]c4ccccc4c3Cc3c[nH]c4ccccc34)c[nH]c2c1", "GI50": "2.36 µM (inactive)"}
{"Compound": "CCCCCCCCCCCCSC(=S)c1c(C)[nH]n(CCCCCCCCCCCC)c1=O", "GI50": "> 10 µM (inactive)"}
{"Compound": "N#Cc1c(-c2ccccc2)cc(Nc2ccc(Cl)cc2)n2c1nc1ccccc12", "GI50": "4.23 µM (inactive)"}

We next turn to a different compound, shown below.
response.value for Cc1cccc(NC(=O)CSc2nnc(Cc3ccccc3)o2)c1 (field: GI50) = > 100 µM (inactive)

----------
- System: NCI-H23
- Method notes: NCI tumour cell line growth inhibition, 48 h
Activity calls are given as the source filed them. Rule as the data show it: active = GI50 up to about 1.1 µM and inactive = higher.
Hi! Could you answer with just one of these? Yes (active), No (inactive)

The examples below pair each entry with its known result.
{"Compound": "Cc1cnc2[nH]c(-c3cccc(F)c3)cc(=O)c2c1", "Assigned label": "Yes"}
{"Compound": "COc1ccc(NC(C)=O)cc1N1C(=O)/C(=C\\c2ccccc2)SC1c1cc(OC)c(OC)c(OC)c1 (stereo not drawn)", "Assigned label": "No"}

Here is the next item to consider.
Query: Please state the recorded outcome for this compound: c1ccc2c[n+](Cc3ccnc4ccccc34)ccc2c1
Response: No

----------
- System: M14
- Method notes: NCI tumour cell line growth inhibition, 48 h
Calls of active or inactive are those of the source. Rule as the data show it: active = GI50 up to about 1.1 µM and inactive = higher.
Item-by-item account of GI50

// known answers, use as guide
{"Compound": "C=C=C(Sc1ccccc1)C(C)(C)O", "Reading": "> 100 µM (inactive)"}
{"Compound": "S=C(N1CCN(c2cccc(Cl)c2)CC1)N1CCN(c2cccc(Cl)c2)CC1", "Reading": "53.7 µM (inactive)"}
{"Compound": "NC(=O)c1csc(C2C=CC(CO)O2)n1 (stereo not given)", "Reading": "> 100 µM (inactive)"}

response.value for Cc1cc(C)nc(NS(=O)(=O)c2ccc(Nc3c4ccccc4nc4c(C(=O)NCCN(C)C)cccc34)cc2)n1 (field: GI50) = 6.5 µM (inactive)

response.value for C(=N\Nc1ccc(-c2nc3ccccc3[nH]2)cc1)/c1c(-c2ccc(Cc3ccccc3)cc2)[nH]c2ccccc12 (field: GI50) = 4.48 µM (inactive)

response.value for NC(=S)C1=C(N)Oc2c(c(=O)oc3ccccc23)C1c1ccc(Br)cc1 (stereo not given) (field: GI50) = > 100 µM (inactive)

response.value for Cc1ccc(C2=Nc3ccccc3[S+]([O-])C(c3ccc4c(c3)OCO4)C2)cc1 (stereo not given) (field: GI50) = 17.6 µM (inactive)

response.value for Cc1cc2c(c(=O)n1C)SCC2 (field: GI50) = > 100 µM (inactive)

response.value for COC(=O)c1c2c(cc3c1CC1(Cc4ccccc4C1=O)C3)CCC2 (stereo not given) (field: GI50) = 31.3 µM (inactive)

response.value for O=c1cc(NNc2ccccc2)[nH]c(=S)[nH]1 (field: GI50) = 36.7 µM (inactive)
